Target: recombinant eIF4E (Homo sapiens (Human), UniProt P06730)
Sequence (P06730 whole entry): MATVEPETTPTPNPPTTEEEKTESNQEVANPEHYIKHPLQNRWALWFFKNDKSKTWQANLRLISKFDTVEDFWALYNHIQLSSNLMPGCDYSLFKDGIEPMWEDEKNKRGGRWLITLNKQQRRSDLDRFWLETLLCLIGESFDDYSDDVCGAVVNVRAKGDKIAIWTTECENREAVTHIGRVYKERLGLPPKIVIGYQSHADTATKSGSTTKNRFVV
Experiment: Fluorescence polarization competition assay for eIF4E binding potency
Settings: inhibition of eIF4E/EDA-m7GDP-ATTO-550 binding by 50%; Table 4B calculated values; read-out: IC50
Label key: TRUE means IC50 under 10 nM; FALSE means IC50 of 10 nM or more.

# count of solved cases: 5
molecule="Cc1cc(-c2cc(Cl)ccc2OCCn2c(C)nc3cnc(-c4ccccc4C(F)(F)F)c(C#N)c3c2=O)c2scc(C(=O)O)c2n1 [compound 950]" label_class=FALSE
molecule="CCc1cc(-c2cc(Cl)ccc2OCCn2c(C)nc3cc(CN(C)C)c(OC(F)F)c(C#N)c3c2=O)c2scc(C(=O)O)c2n1 [compound 896]" label_class=TRUE
molecule="Cc1nc2cnc(N(C)C3CCN(CC(C)(C)F)CC3)c(C#N)c2c(=O)n1CC#Cc1ccc(Cl)cc1-c1ccnc2c(C(=O)O)csc12 [compound 1142]" label_class=FALSE
molecule="N#Cc1cc2c(=O)n(CCOc3ccc(Cl)cc3-c3ccc(F)c(C(=O)O)c3F)cnc2cn1 [compound 91]" label_class=FALSE
molecule="Cc1nc2cc(C(F)(F)F)c(CN(C)C)c(C#N)c2c(=O)n1CC#Cc1ccc(Cl)cc1-c1ccnc2c(C(=O)O)csc12 [compound 553]" label_class=FALSE

## Input Bench note: check whether Cc1c(S(C)(=O)=O)c2cc(C(F)(F)F)cc(C#N)c2c(=O)n1CCOc1ccc(Cl)cc1-c1ccnc2c(C(=O)O)csc12 [compound 318] shows IC50 below 10 nM
## Output TRUE

----------
Molecular target: recombinant eIF4E (Homo sapiens (Human))
Assay: Fluorescence polarization competition assay for eIF4E binding potency
Details: fluorescence polarization competition, 75 nM recombinant eIF4E, 20 nM EDA-m7GDP-ATTO-550; IC50 class; read-out: elF4E FP
pIC50: −log10 of the molar value.
endpoint.name: pIC50

compound=Cc1cc(-c2cc(Cl)ccc2OCCc2nc3cc(N4CCN(C)CC4)c(C(F)(F)F)cc3nc2C)c2scc(C(=O)O)c2n1 endpoint_name=pIC50 reported_value="6.00 to 7.30"

## Input Give the value of pIC50 reported for the following: CN1c2cc(C(F)(F)F)cc(C#N)c2C(=O)N(CCOc2ccc(Cl)cc2-c2ccnc3c(C(=O)O)csc23)C1(C)C
## Output 6.00 to 7.30

## Input Give the value of pIC50 reported for the following: Cc1nc2cnc(C#N)cc2c(=O)n1CCOc1ccc(Cl)cc1-c1ccnc(C(=O)O)c1
## Output 6.00 to 7.30

## Input Give the value of pIC50 reported for the following: Cc1c(CN(C)C)c(C(F)(F)F)cc2nc(C)n(CCOc3ccc(Cl)cc3-c3ccnc4c(C(=O)O)csc34)c(=O)c12
## Output > 7.30

## Input Give the value of pIC50 reported for the following: CC(=O)Nc1cc2c(=O)n(CCOc3ccc(Cl)cc3-c3cccc(C(=O)O)c3)cnc2cn1
## Output 6.00 to 7.30

## Input Give the value of pIC50 reported for the following: Cc1cc(-c2cc(Cl)ccc2OCCn2c(C)nc3cc(C(F)(F)F)c(-c4ccncc4C)c(C#N)c3c2=O)c2scc(C(=O)O)c2n1
## Output > 7.30

## Input Give the value of pIC50 reported for the following: Cc1cc(F)cc(-c2c(C(F)(F)F)cc3nc(C)n(CCOc4ccc(Cl)cc4-c4cc(C)nc5c(C(=O)O)csc45)c(=O)c3c2C#N)n1
## Output > 7.30

## Input Give the value of pIC50 reported for the following: O=C(O)c1cccc(-c2cc(Cl)ccc2OCCc2cnc(C(F)F)c3nc(Nc4ccccc4)[nH]c(=O)c23)c1
## Output 6.00 to 7.30

## Input Give the value of pIC50 reported for the following: Cc1nc2cnc(N3CCN(C(C)(C)CC(F)(F)F)CC3)c(C#N)c2c(=O)n1CCOc1ccc(Cl)cc1-c1ccnc2c(C(=O)O)csc12
## Output > 7.30

## Input Give the value of pIC50 reported for the following: Cc1nc2cc(F)c(F)c(C#N)c2c(=O)n1CCOc1ccc(Cl)cc1-c1ccnc2c(C(=O)NS(C)(=O)=O)csc12
## Output 6.00 to 7.30

## Input Give the value of pIC50 reported for the following: Cc1c([N+](=O)O)c2cc(C(F)(F)F)cc(C#N)c2c(=O)n1CCOc1ccc(Cl)cc1-c1ccnc2c(C(=O)O)csc12
## Output > 7.30

## Input Give the value of pIC50 reported for the following: Cc1nc2cc(OC(F)F)c(Cl)c(C#N)c2c(=O)n1CCOc1ccc(Cl)cc1-c1ccnc2c(C(=O)O)csc12
## Output > 7.30

## Input Give the value of pIC50 reported for the following: Cc1cc(-c2cc(Cl)ccc2OCCn2c(C)nc3cc4c(c(C#N)c3c2=O)CCC4N(C)C)c2scc(C(=O)O)c2n1 (centres unmarked)
## Output > 7.30
